Tgt: T1, IFF05588
T1 chain: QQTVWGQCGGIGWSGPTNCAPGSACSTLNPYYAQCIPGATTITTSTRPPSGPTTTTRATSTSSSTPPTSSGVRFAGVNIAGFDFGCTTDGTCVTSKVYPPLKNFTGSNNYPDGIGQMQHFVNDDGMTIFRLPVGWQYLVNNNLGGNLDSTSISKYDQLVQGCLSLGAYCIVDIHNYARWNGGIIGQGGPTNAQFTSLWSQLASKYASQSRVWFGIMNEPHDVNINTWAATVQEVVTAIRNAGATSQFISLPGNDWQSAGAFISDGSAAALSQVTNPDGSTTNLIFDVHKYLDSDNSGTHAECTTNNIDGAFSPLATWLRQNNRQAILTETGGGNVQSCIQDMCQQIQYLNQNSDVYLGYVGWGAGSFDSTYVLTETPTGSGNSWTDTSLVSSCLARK
Quantity: Relative late peak area (centered, scaled, averaged over 5, 10 and 15 min)
Just the number, please, no unit attached.

Query: Reported Relative late peak area (centered, scaled, averaged over 5, 10 and 15 min), protein IFF21360 (protein) RLDKPVIKPPFPNGGGLGSLGPDLMSSLPIAAHTTSDWDSDHLPRDCKRLAQSAGFSPLDVDAFNIRFDDCKQQPWVFCRHKDAPLSKSNMTELFGRLPVRMRQYIRHIIALPGQRSAGSAGDNIQMNGDCEITVFIHETGHSLDSHAFDPKHGVPFSNSPVWKDAYDKDTAVTDDYAQTSQQENFAQETVVAVYDKNVKGGGIGKIQPNAQAIRNAYTTLEKYIGDIIIPGGECTHRLENSPAVPKVDSARTRLVAKSEPVGEGLTRIEPIPMGPITLARY : ____
Response: -0.58
